Read-out: Monokine induced gamma interferon (MIG), CXCL9 (gene 4283)
assay-explanation: BSK_SAg_MIG: BioMAP Diversity Plus: SAg Assay for Monokine induced gamma interferon (MIG) Biomarker Activity (AID 2283092)
assay-context: primary human HUVEC with PBMC; actives raise or lower the signal
Activity calls are given as the source filed them. The calls were made as follows: active = hit-call score of the fitted dose curve at least 0.9, where 1 is the maximum; inactive = score below 0.9.
Classes used: Yes (active), No (inactive)

> print(dat)
                                    molecule  assigned.label
 1                        CCO[Si](C)(OCC)OCC              No
 2  CC(C)(c1cc(Br)c(OCCO)c(Br)c1)c1cc(Br)c(OCCO)c(Br)c1              No
 3  CC1OC1C1CCC2(C)OC2C1 (stereo unspecified)              No
 4         O=C(Cl)c1cc(C(=O)Cl)cc(C(=O)Cl)c1             Yes
 5        C=CCOCC(O)CCl (stereo unspecified)              No
 6                    CO[Si](OC)(OC)c1ccccc1              No
 7                   C=CCOc1c(Br)cc(Br)cc1Br              No
 8            CCCCC/C=C\C/C=C\CCCCCCCC(=O)OC             Yes
 9   C=CC(=O)OCC(Br)CBr (stereo unspecified)             Yes
10  COCc1c(C(C)C)nc(C(C)C)c(/C=C/[C@@H](O)C[C@@H](O)CC(=O)O)c1-c1ccc(F)cc1              No
11  CCCCC(CC)COC(=O)c1ccccc1O (stereo unspecified)              No

----------
system-name: Retinoic acid receptor alpha (Homo sapiens) (UniProt P10276)
Sequence (P10276 whole entry, looked up): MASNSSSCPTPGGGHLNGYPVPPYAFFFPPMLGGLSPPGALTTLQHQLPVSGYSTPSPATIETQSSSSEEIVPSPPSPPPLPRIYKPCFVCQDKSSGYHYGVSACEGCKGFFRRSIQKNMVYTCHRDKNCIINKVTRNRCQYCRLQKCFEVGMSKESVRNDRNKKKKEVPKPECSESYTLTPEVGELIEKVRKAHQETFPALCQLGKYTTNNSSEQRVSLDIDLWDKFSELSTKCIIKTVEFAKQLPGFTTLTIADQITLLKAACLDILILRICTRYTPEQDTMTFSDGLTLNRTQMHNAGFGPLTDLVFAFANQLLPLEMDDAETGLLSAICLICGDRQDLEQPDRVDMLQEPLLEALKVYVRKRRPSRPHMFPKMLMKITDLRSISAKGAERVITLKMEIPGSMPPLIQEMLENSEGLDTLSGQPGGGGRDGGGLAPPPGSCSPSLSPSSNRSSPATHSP
assay-explanation: NVS_NR_hRAR_Antagonist: NovaScreen (NVS) Nuclear Receptor Binding Assay for human Retinoic Acid Alpha Receptor Antagonism (RAR) (AID 2283358)
Results filed as inconclusive are left out. The source made the active and inactive calls. How the source made its calls: active means hit-call score of the fitted dose curve at least 0.9, where 1 is the maximum; inconclusive means response in the unintended direction; inactive means score below 0.9.
reported-endpoint: AC50

> print(dat)
                              smiles.string        data.value
1             CCCCCCCC/C=C\CCCCCCCC(=O)OCCO          inactive
2  CC(C)c1ccc2c(C(C)C)cc(C(C)C)c(S(=O)(=O)O)c2c1  12.9 µM (active)
3                   CCCCCCCCCCCCCOP(=O)(O)O          inactive
4               Oc1ccc(Cl)cc1Cc1cc(Cl)ccc1O          inactive

----------
assay-explanation: ATG_PXRE_CIS: Attagene CIS-FACTORIAL HepG2 Assay for human Pregnane X Receptor Element (PXRE) (AID 2282957)
assay-context: HepG2 Attagene CIS-FACTORIAL PXRE reporter, mRNA; actives raise or lower the signal
Activity calls are given as the source filed them. The calls were made as follows: active = hit-call score of the fitted dose curve at least 0.9, where 1 is the maximum; inactive = score below 0.9.
reported-endpoint: AC50

> print(dat)
                                    compound        data.value
 1         FC(F)=C(F)OC(F)(F)C(F)(F)C(F)(F)F          inactive
 2  COc1ccc(C(Cl)=C(c2ccc(OC)cc2)c2ccc(OC)cc2)cc1  2.54 µM (active)
 3                          CCCCCCCOC(=O)CCC    48 µM (active)
 4  CC(C)(Oc1ccc(C2CC2(Cl)Cl)cc1)C(=O)O (configuration not stated)  41.1 µM (active)
 5                            C1=Cc2ccccc2C1  9.16 µM (active)
 6                 CCO[Si](CCCN=C=O)(OCC)OCC  13.9 µM (active)
 7       CN(C)c1ccc(C(=N)c2ccc(N(C)C)cc2)cc1  5.82 µM (active)
 8                 COc1c2ccoc2cc2oc(=O)ccc12  26.9 µM (active)
 9                          CCCCCCCCCCC=CC#N  27.5 µM (active)
10                         COC(=O)c1ccccc1OC          inactive
11                       Cc1ccc(C(C)(C)C)cc1          inactive
12         O=C(O)c1ccccc1Nc1cccc(C(F)(F)F)c1   5.5 µM (active)
13       O=c1[nH]c(=O)c2[nH]c(=O)[nH]c2[nH]1          inactive
14                Nc1ccc(Oc2ccc(N)c(N)c2)cc1          inactive
15  CC(C)CC(O)Cc1ccccc1 (configuration not stated)  71.6 µM (active)
16                         OCCN(CCO)c1ccccc1          inactive
17  CC(C)c1ccc2c(c1)CC[C@H]1[C@](C)(CN)CCC[C@]21C          inactive
18                                  O=CC1CC1          inactive
19                              CC(=O)OC(C)C   100 µM (active)
20                   Cc1cc(C)c(C(=O)O)c(C)c1          inactive
21    NC(=O)C1CO1 (configuration not stated)          inactive
22  CC1OC1C1CCC2(C)OC2C1 (configuration not stated)  36.7 µM (active)
23                        O=P(O)(O)Oc1ccccc1          inactive
24                         Nc1nc2ccccc2[nH]1          inactive
25              CC(C)(C)C(=O)C=Cc1ccc(Cl)cc1  5.18 µM (active)
26                      C=CC(=O)OCCOC(=O)C=C  26.5 µM (active)
27                             CCCCCCCC(C)=O          inactive
28           O=c1n(CCO)c(=O)n(CCO)c(=O)n1CCO          inactive
29                CCCCCCCC/C=C\CCCCCCCC(=O)O          inactive
30                  O=C1CCCCCN1SSN1CCCCCC1=O          inactive
31                               CCc1nccnc1C          inactive
32                             OCCNCc1ccccc1          inactive

----------
system-name: Peroxisome proliferator-activated receptor gamma (Homo sapiens)
assay-explanation: ATG_PPARg_TRANS: Attagene TRANS-FACTORIAL HepG2 Assay for human Peroxisome Proliferator-activated Receptor-gamma (PPARg) (AID 2283007)
Results filed as inconclusive are left out. Active and inactive are the calls of the source. How the source made its calls: active means hit-call score of the fitted dose curve at least 0.9, where 1 is the maximum; inconclusive means response in the unintended direction; inactive means score below 0.9.
Classes used: t for active, f for inactive

> print(dat)
                                    compound  assigned.label
 1   CCCCCCC1(C)CCC(=O)O1 (stereo not drawn)               f
 2       CCc1c(C(=O)O)c(=O)cnn1-c1ccc(Cl)cc1               f
 3  O=S(=O)(O)c1ccccc1C=Cc1ccc(-c2ccc(C=Cc3ccccc3S(=O)(=O)O)cc2)cc1               f
 4           COc1cc(NC(=O)CC(C)=O)c(OC)cc1Cl               f
 5                          CCCCCCCCC(=O)OCC               f
 6                     O=C1CCCCCCCCCCCCCCCO1               t
 7  C=CC(C)(CCC=C(C)C)OC(=O)C(C)C (stereo not drawn)               f
 8              C=C(C)c1cccc(C(C)(C)N=C=O)c1               t
 9     O=S(=O)(O)CC(O)CCl (stereo not drawn)               t
10            Cc1ccc(C(C)c2ccc(C)c(C)c2)cc1C               t
11                   C=C(C)C(=O)OCCOc1ccccc1               t
12                        Cc1cc(C)c(C)c(O)c1               f
13                 CCCCCCOc1cc(C)c(O)c(C)c1C               t
14    O=C1c2ccccc2C(=O)C1c1nc2ccccc2c(Br)c1O               t
15               C=CC(=O)NC(C)(C)CS(=O)(=O)O               f
16                     Cc1cc(O)c(Cl)c(C)c1Cl               t
17  CC(=O)OCC(=O)[C@@]12N=C(C)O[C@@H]1C[C@H]1[C@@H]3CCC4=CC(=O)C=C[C@]4(C)[C@H]3[C@@H](O)C[C@@]12C               f
18                   CCCCCCCCCCCCCOP(=O)(O)O               t
19               CC(C)(C)C(=O)CCc1ccc(Cl)cc1               f
20  CCC(=O)Oc1ccc(/C(CC)=C(\CC)c2ccc(OC(=O)CC)cc2)cc1               t
21                 O=C(O)Cc1c(Cl)ccc(Cl)c1Cl               t
22                         C=CC(=O)OCCC(=O)O               f
23                           Clc1nc2ccccc2s1               f
24                           C=C(C)C(=O)OCCO               f
25                     c1ccc(CNCc2ccccc2)cc1               f
26                O=C(C=Cc1ccccc1)OCc1ccccc1               t
27  C=C(C)[C@@H]1CCC2=CCC[C@@H](C)[C@]2(C)C1               f
28                   Nc1ccc(-c2ccc(F)cc2)cc1               f
